Please provide measured CD28 Fold change to WT CD80 for the entries that follow.
- MEASUREMENT_TARGET: CD28 (Homo sapiens, UniProt P10747)
- TEST_NAME: Flow binding to Jurkat/IL2 reporter cells (CD28)
- Design: host or cells: Jurkat cells expressing an IL-2-luciferase reporter
- STUDY_CONDITIONS: Table E19; MFI at 33.3 nM relative to WT CD80 ECD-Fc (Abcam)
State just the number; it will be interpreted in fold.

Query: Provide measured CD28 Fold change to WT CD80 value, entry: D46V/L85Q (protein) VIHVTKEVKEVATLSCGHNVSVEELAQTRIYWQKEKKMVLTMMSGVMNIWPEYKNRTIFDITNNLSIVILALRPSDEGTYECVVQKYEKDAFKREHLAEVTLSVKAD
Reply: 0.2

Query: Provide measured CD28 Fold change to WT CD80 value, entry: M47V/N48K/V68M (protein) VIHVTKEVKEVATLSCGHNVSVEELAQTRIYWQKEKKMVLTMMSGDVKIWPEYKNRTIFDITNNLSIMILALRPSDEGTYECVVLKYEKDAFKREHLAEVTLSVKAD
Reply: 0.9
